src = patent US9586949B2

Target: PI3Kδ (p110δ/p85α) Recombinant Human Protein (Homo sapiens (Human), UniProt O00329)
Sequence (O00329 whole entry): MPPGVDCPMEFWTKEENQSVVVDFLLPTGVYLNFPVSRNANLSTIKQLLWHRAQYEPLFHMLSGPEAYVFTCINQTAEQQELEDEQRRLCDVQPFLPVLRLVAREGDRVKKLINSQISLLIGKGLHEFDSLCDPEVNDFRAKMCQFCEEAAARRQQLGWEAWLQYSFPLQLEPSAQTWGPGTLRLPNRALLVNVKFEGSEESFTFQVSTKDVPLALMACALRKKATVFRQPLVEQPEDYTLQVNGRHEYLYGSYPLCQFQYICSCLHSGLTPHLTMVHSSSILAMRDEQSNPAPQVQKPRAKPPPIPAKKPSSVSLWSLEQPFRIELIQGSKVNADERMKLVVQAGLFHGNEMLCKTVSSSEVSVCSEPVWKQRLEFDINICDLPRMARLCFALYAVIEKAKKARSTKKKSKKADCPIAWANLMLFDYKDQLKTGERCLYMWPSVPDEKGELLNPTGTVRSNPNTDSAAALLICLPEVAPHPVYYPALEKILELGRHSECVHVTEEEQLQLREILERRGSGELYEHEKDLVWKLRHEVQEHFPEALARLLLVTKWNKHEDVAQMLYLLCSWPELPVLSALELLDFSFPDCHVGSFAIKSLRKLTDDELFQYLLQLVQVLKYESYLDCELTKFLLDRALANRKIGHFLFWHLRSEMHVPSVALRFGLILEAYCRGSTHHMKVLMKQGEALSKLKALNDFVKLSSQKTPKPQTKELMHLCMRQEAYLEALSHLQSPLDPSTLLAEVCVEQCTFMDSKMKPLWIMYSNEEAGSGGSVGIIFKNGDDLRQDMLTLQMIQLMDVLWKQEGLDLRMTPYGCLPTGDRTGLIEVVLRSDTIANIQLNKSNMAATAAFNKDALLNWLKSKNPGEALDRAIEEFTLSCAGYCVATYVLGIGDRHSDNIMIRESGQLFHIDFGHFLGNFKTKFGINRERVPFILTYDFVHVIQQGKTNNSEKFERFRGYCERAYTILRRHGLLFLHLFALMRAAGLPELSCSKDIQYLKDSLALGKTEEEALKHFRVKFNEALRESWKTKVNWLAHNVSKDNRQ
Sequence (P27986 whole entry partner): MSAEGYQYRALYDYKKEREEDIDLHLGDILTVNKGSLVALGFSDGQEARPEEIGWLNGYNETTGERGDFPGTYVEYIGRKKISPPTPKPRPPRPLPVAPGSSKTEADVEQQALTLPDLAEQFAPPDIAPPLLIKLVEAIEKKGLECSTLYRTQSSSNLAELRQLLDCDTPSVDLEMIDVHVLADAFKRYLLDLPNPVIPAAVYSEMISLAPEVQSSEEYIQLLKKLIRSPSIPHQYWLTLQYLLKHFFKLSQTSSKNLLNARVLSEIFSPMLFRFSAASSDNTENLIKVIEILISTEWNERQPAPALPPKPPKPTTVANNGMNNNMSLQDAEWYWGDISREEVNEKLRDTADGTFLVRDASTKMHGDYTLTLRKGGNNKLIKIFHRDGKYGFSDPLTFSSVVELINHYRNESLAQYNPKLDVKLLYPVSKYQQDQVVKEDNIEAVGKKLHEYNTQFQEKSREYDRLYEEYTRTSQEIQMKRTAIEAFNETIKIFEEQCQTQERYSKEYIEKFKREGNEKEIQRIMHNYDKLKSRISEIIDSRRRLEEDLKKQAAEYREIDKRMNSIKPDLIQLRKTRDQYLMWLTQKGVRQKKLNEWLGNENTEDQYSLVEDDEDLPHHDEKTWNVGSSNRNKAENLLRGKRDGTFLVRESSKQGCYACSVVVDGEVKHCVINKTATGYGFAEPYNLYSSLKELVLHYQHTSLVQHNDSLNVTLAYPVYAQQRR
Test: PI3Kδ Scintillation Proximity Assay
Conditions: 20 μM PIP2, 2 μM ATP, 3.4 nM PI3Kδ, 120 min; read-out: PI3K-delta SPA IC50
Counter-ions that a name gives are not always drawn.

{"columns": ["MOLECULE", "IC50"],
 "data": [
  ["COc1cncc(-c2ccc3nc(-c4cc5ccccc5[nH]4)oc3c2)c1 [Example 5, trifluoroacetate]", "< 1000 nM"],
  ["COc1cncc(-c2ccc3nc(-c4cc(-c5ccccc5)n[nH]4)oc3c2)c1", "≥ 5000 nM"],
  ["COc1cncc(-c2ccc3nc(-c4ncc[nH]4)oc3c2)c1 [Example 1, trifluoroacetate]", "< 5000 nM"],
  ["O=S(=O)(Nc1cncc(-c2ccc3nc(-c4nc5ccccc5[nH]4)oc3c2)c1)c1ccc(F)cc1", "< 250 nM"]
]}
